τ1, fluorescence decay time of fast component by entry:
Test: Fluorescence decay times (phase-shift method)
Type: physicochemical
Details: ca. 5 μM, air-equilibrated buffer pH 7.4, λexc = 420 nm, λem > 600 nm
RESULT_TYPE: τ1, fluorescence decay time of fast component (ns)

COMPOUND	QUANTITATIVE_RESULT
CCCCCCCCCCCCCCCCCCCCCC[n+]1ccc(-c2c3nc(c(-c4cc[n+](C)cc4)c4ccc([nH]4)c(-c4cc[n+](C)cc4)c4nc(c(-c5cc[n+](C)cc5)c5ccc2[nH]5)C=C4)C=C3)cc1.Cl.Cl.[Cl-].[Cl-].[Cl-].[Cl-] [Porphyrin C22]	0.5
CCCCCCCCCCCCCCCCCC[n+]1ccc(-c2c3nc(c(-c4cc[n+](C)cc4)c4ccc([nH]4)c(-c4cc[n+](C)cc4)c4nc(c(-c5cc[n+](C)cc5)c5ccc2[nH]5)C=C4)C=C3)cc1.Cl.Cl.[Cl-].[Cl-].[Cl-].[Cl-] [Porphyrin C18]	1.4

----------
ΦSDS × 10^3, quantum yield for photo-oxidation of NATA by entry:
Experiment: Photosensitized photooxidation of NATA
Details: 10 μM NATA, aqueous 2% SDS
RESULT_TYPE: ΦSDS × 10^3, quantum yield for photo-oxidation of NATA

MOLECULE	QUANTITATIVE_RESULT
CCCCCCCCCCCCCCCCCC[n+]1ccc(-c2c3nc(c(-c4cc[n+](C)cc4)c4ccc([nH]4)c(-c4cc[n+](C)cc4)c4nc(c(-c5cc[n+](C)cc5)c5ccc2[nH]5)C=C4)C=C3)cc1.Cl.Cl.[Cl-].[Cl-].[Cl-].[Cl-]	0.80
C[n+]1ccc(-c2c3nc(c(-c4cc[n+](C)cc4)c4ccc([nH]4)c(-c4cc[n+](C)cc4)c4nc(c(-c5cc[n+](C)cc5)c5ccc2[nH]5)C=C4)C=C3)cc1.Cc1ccc(S(=O)(=O)[O-])cc1.Cc1ccc(S(=O)(=O)[O-])cc1.Cc1ccc(S(=O)(=O)[O-])cc1.Cc1ccc(S(=O)(=O)[O-])cc1 [Porphyrin T4MPyP, reference compound]	0.64
CCCCCCCCCCCCCCCCCCCCCC[n+]1ccc(-c2c3nc(c(-c4cc[n+](C)cc4)c4ccc([nH]4)c(-c4cc[n+](C)cc4)c4nc(c(-c5cc[n+](C)cc5)c5ccc2[nH]5)C=C4)C=C3)cc1.Cl.Cl.[Cl-].[Cl-].[Cl-].[Cl-]	0.83

----------
τ^air, triplet lifetime by entry:
Test: Triplet state properties by laser flash photolysis
Type: physicochemical
Conditions: phosphate-buffered solution, air
Method: Laser flash photolysis experiments were carried out by use of the setup previously described in Gomer, et al., with excitation wavelengths of 355 and 420 nm. […] The transient spectra of the porphyrins in buffer solutions were recorded upon laser flash photolysis excitation at 355 and 420 nm. […] This also allowed the triplet quantum yield (φT) to be determined (see Table 3), after calibration of the experimental setup by use of an optically-matched solution of benzophenone in acetonitrile.
RESULT_TYPE: τ^air, triplet lifetime

COMPOUND	RESULT
C[n+]1ccc(-c2c3nc(c(-c4cc[n+](C)cc4)c4ccc([nH]4)c(-c4cc[n+](C)cc4)c4nc(c(-c5cc[n+](C)cc5)c5ccc2[nH]5)C=C4)C=C3)cc1.Cc1ccc(S(=O)(=O)[O-])cc1.Cc1ccc(S(=O)(=O)[O-])cc1.Cc1ccc(S(=O)(=O)[O-])cc1.Cc1ccc(S(=O)(=O)[O-])cc1 [Porphyrin T4MPyP, reference compound]	14 μs
CCCCCCCCCCCCCC[n+]1ccc(-c2c3nc(c(-c4cc[n+](C)cc4)c4ccc([nH]4)c(-c4cc[n+](C)cc4)c4nc(c(-c5cc[n+](C)cc5)c5ccc2[nH]5)C=C4)C=C3)cc1.Cl.Cl.[Cl-].[Cl-].[Cl-].[Cl-] [Porphyrin C14]	20 μs

----------
Experiment: Triplet state properties by laser flash photolysis
Assay type: physicochemical
Details: phosphate-buffered solution
φ×ε920 by entry:
RESULT_TYPE: φ×ε920 (M⁻¹ cm⁻¹)

MOLECULE	VALUE_PREFIX	QUANTITATIVE_RESULT
CCCCCCCCCCCCCC[n+]1ccc(-c2c3nc(c(-c4cc[n+](C)cc4)c4ccc([nH]4)c(-c4cc[n+](C)cc4)c4nc(c(-c5cc[n+](C)cc5)c5ccc2[nH]5)C=C4)C=C3)cc1.Cl.Cl.[Cl-].[Cl-].[Cl-].[Cl-]	=	9762
CCCCCCCCCCCCCCCCCC[n+]1ccc(-c2c3nc(c(-c4cc[n+](C)cc4)c4ccc([nH]4)c(-c4cc[n+](C)cc4)c4nc(c(-c5cc[n+](C)cc5)c5ccc2[nH]5)C=C4)C=C3)cc1.Cl.Cl.[Cl-].[Cl-].[Cl-].[Cl-]	=	2700
CCCCCCCCCCCCCCCCCCCCCC[n+]1ccc(-c2c3nc(c(-c4cc[n+](C)cc4)c4ccc([nH]4)c(-c4cc[n+](C)cc4)c4nc(c(-c5cc[n+](C)cc5)c5ccc2[nH]5)C=C4)C=C3)cc1.Cl.Cl.[Cl-].[Cl-].[Cl-].[Cl-]	<	122
CCCCCCCCCC[n+]1ccc(-c2c3nc(c(-c4cc[n+](C)cc4)c4ccc([nH]4)c(-c4cc[n+](C)cc4)c4nc(c(-c5cc[n+](C)cc5)c5ccc2[nH]5)C=C4)C=C3)cc1.Cl.Cl.[Cl-].[Cl-].[Cl-].[Cl-]	=	10214
C[n+]1ccc(-c2c3nc(c(-c4cc[n+](C)cc4)c4ccc([nH]4)c(-c4cc[n+](C)cc4)c4nc(c(-c5cc[n+](C)cc5)c5ccc2[nH]5)C=C4)C=C3)cc1.Cc1ccc(S(=O)(=O)[O-])cc1.Cc1ccc(S(=O)(=O)[O-])cc1.Cc1ccc(S(=O)(=O)[O-])cc1.Cc1ccc(S(=O)(=O)[O-])cc1 [Porphyrin T4MPyP, reference compound]	=	6814

----------
Test system: E. coli cells
Assay: Growth inhibition after 5 min incubation with porphyrin and white-light irradiation
Type: cell-based, Escherichia coli
Conditions: both cell strains (S. aureus and E. coli)
RESULT_TYPE: concentration photoinducing significant bacteriostatic and bactericidal action

MOLECULE	STUDY_TARGET	RESULT
C[n+]1ccc(-c2c3nc(c(-c4cc[n+](C)cc4)c4ccc([nH]4)c(-c4cc[n+](C)cc4)c4nc(c(-c5cc[n+](C)cc5)c5ccc2[nH]5)C=C4)C=C3)cc1.Cc1ccc(S(=O)(=O)[O-])cc1.Cc1ccc(S(=O)(=O)[O-])cc1.Cc1ccc(S(=O)(=O)[O-])cc1.Cc1ccc(S(=O)(=O)[O-])cc1 [Porphyrin T4MPyP, reference compound]	E. coli cells	10 µM

----------
λmin of transient spectrum by entry:
Test: Triplet state properties by laser flash photolysis
Format: physicochemical
Settings: phosphate-buffered solution
Procedure: Laser flash photolysis experiments were carried out by use of the setup previously described in Gomer, et al., with excitation wavelengths of 355 and 420 nm. […] The transient spectra of the porphyrins in buffer solutions were recorded upon laser flash photolysis excitation at 355 and 420 nm. […] This also allowed the triplet quantum yield (φT) to be determined (see Table 3), after calibration of the experimental setup by use of an optically-matched solution of benzophenone in acetonitrile.
RESULT_TYPE: λmin of transient spectrum (nm)

COMPOUND	QUANTITATIVE_RESULT
CCCCCCCCCC[n+]1ccc(-c2c3nc(c(-c4cc[n+](C)cc4)c4ccc([nH]4)c(-c4cc[n+](C)cc4)c4nc(c(-c5cc[n+](C)cc5)c5ccc2[nH]5)C=C4)C=C3)cc1.Cl.Cl.[Cl-].[Cl-].[Cl-].[Cl-]	420
CCCCCCCCCCCCCCCCCCCCCC[n+]1ccc(-c2c3nc(c(-c4cc[n+](C)cc4)c4ccc([nH]4)c(-c4cc[n+](C)cc4)c4nc(c(-c5cc[n+](C)cc5)c5ccc2[nH]5)C=C4)C=C3)cc1.Cl.Cl.[Cl-].[Cl-].[Cl-].[Cl-]	420
C[n+]1ccc(-c2c3nc(c(-c4cc[n+](C)cc4)c4ccc([nH]4)c(-c4cc[n+](C)cc4)c4nc(c(-c5cc[n+](C)cc5)c5ccc2[nH]5)C=C4)C=C3)cc1.Cc1ccc(S(=O)(=O)[O-])cc1.Cc1ccc(S(=O)(=O)[O-])cc1.Cc1ccc(S(=O)(=O)[O-])cc1.Cc1ccc(S(=O)(=O)[O-])cc1 [Porphyrin T4MPyP, reference compound]	425
CCCCCCCCCCCCCC[n+]1ccc(-c2c3nc(c(-c4cc[n+](C)cc4)c4ccc([nH]4)c(-c4cc[n+](C)cc4)c4nc(c(-c5cc[n+](C)cc5)c5ccc2[nH]5)C=C4)C=C3)cc1.Cl.Cl.[Cl-].[Cl-].[Cl-].[Cl-]	425
CCCCCCCCCCCCCCCCCC[n+]1ccc(-c2c3nc(c(-c4cc[n+](C)cc4)c4ccc([nH]4)c(-c4cc[n+](C)cc4)c4nc(c(-c5cc[n+](C)cc5)c5ccc2[nH]5)C=C4)C=C3)cc1.Cl.Cl.[Cl-].[Cl-].[Cl-].[Cl-]	420
